target: activated JNK3 (Homo sapiens); construct: One such construct encodes amino acid residues Ser40-Glu402 of JNK3α1 and is preceded by Met and Gly residues; Met-Gly (initiation Met plus Gly added to create the NcoI site) (N); assay: JNK3 inhibition, spectrophotometric coupled-enzyme assay; settings: read-out: Activity in the JNK3 Inhibition Assay (Ki rating)
pKi: −log10 of the molar value.
Parameter measured: pKi

>>> print(df.to_string())
                                   compound  parameter_measured  recorded_result
0  Cc1ccc(C(=O)Nc2nccc(-c3c(-c4cccc(F)c4)noc3C)n2)cc1                 pKi     6.00 to 7.00
1  Fc1ccc(-c2noc(COC3CCOC3)c2-c2ccnc(NC3CCCCC3)n2)cc1 (stereo not drawn)                 pKi           > 7.00
2  Cc1onc(-c2c(F)cccc2F)c1-c1ccnc(NC(=O)c2cccc(Cl)c2)n1                 pKi     6.00 to 7.00
3  COC(=O)c1cccc(Nc2nccc(-c3c(-c4cccc(C#N)c4)noc3C)n2)c1                 pKi     6.00 to 7.00
4  COc1cc(OC)cc(C(=O)Nc2nccc(-c3c(-c4cccc([N+](=O)[O-])c4)noc3C)n2)c1                 pKi           < 6.00
5  COC(=O)c1ccc(Nc2cc(-c3c(-c4ccccc4)noc3C)ccn2)cc1                 pKi           > 7.00

###

target: activated JNK3 (Homo sapiens, UniProt P53779); construct: One such construct encodes amino acid residues Ser40-Glu402 of JNK3α1 and is preceded by Met and Gly residues; Met-Gly (initiation Met plus Gly added to create the NcoI site) (N); assay: JNK3 inhibition, spectrophotometric coupled-enzyme assay; conditions: read-out: Activity in the JNK3 Inhibition Assay (Ki rating)
Sequence (P53779 40-402): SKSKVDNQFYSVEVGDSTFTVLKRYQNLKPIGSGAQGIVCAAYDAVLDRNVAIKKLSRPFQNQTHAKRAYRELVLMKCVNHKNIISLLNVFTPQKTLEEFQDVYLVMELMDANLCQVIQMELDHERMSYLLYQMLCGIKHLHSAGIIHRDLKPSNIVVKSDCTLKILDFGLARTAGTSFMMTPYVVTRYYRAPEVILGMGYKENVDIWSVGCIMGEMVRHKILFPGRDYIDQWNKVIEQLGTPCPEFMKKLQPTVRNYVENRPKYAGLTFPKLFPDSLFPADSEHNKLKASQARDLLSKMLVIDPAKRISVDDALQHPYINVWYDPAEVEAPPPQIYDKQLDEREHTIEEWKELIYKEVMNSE
Measured Ki accompanies every entry in the list below.
Parameter measured: Ki

>>> print(df.to_string())
                              smiles_string  parameter_measured  recorded_result
0  Cc1onc(-c2cccc(C#N)c2)c1-c1ccnc(Nc2cccc(C#N)c2)n1                  Ki   100 to 1000 nM
1  COc1cc(C(=O)Nc2nccc(-c3c(-c4cccc(OCc5ccccc5)c4)noc3C)n2)cc(OC)c1OC                  Ki   100 to 1000 nM
2  Cc1onc(-c2c(Cl)cccc2Cl)c1-c1ccnc(Nc2ccccc2)n1                  Ki   100 to 1000 nM
3  Cc1onc(-c2ccccc2)c1-c1ccnc(Nc2ccc(F)cc2)n1                  Ki         < 100 nM
4   Cc1onc(-c2ccccc2)c1-c1ccnc(NC2CCCCC2)n1                  Ki         < 100 nM
5  Cc1onc(-c2ccccc2)c1-c1ccnc(Nc2ccc3ccccc3c2)n1                  Ki   100 to 1000 nM
6  Cc1onc(-c2ccccc2Br)c1-c1ccnc(Nc2ccccc2)n1                  Ki   100 to 1000 nM

Measured values drawn from patent US6693108B2 for this set.
